Cited source for all entries: patent US6518284B2

Hi there, I'd appreciate the recorded pKi for every entry that follows.
molecular target: noradrenaline (NA) reuptake receptors / Noradrenaline uptake sites (transporters) (Rattus norvegicus, UniProt Q63380); assay: Affinity for noradrenaline reuptake sites, [3H]-nisoxetine radioligand, rat cerebral cortex; assay type: binding; conditions: Rat brain; read-out: K1 values, Noradrenaline uptake sites (transporters)
Sequence (Q63380 1-617): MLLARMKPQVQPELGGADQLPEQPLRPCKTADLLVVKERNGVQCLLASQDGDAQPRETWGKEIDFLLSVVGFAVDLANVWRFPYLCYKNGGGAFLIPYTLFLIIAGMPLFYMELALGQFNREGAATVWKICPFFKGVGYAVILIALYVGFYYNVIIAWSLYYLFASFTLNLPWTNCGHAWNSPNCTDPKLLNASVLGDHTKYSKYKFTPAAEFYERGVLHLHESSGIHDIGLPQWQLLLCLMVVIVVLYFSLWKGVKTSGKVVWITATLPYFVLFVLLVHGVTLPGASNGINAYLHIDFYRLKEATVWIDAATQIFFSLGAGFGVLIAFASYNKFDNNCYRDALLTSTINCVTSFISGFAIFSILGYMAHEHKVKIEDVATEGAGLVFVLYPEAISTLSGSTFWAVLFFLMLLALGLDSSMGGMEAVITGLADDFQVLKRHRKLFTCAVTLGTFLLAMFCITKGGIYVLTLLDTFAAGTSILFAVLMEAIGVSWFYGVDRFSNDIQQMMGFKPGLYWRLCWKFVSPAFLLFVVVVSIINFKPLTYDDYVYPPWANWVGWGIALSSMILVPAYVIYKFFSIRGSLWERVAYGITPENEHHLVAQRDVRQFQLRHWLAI
Please note pKi is a logarithmic value: minus log10 of concentration in mol/L. Answer with that number alone.

query: For the compound shown here, Fc1ccccc1O[C@H](c1ccccc1)C1CCNCC1 , give the reported pKi.
result: 7.65

query: For the compound shown here, Fc1cc(F)cc(O[C@H](c2ccccc2)C2CCNCC2)c1 , give the reported pKi.
result: 7.60

query: For the compound shown here, Fc1cccc([C@H](Oc2ccccc2F)C2CCNCC2)c1 , give the reported pKi.
result: 7.72

query: For the compound shown here, Clc1cccc(O[C@@H](c2ccccc2)C2CCNCC2)c1 , give the reported pKi.
result: 7.25

query: For the compound shown here, Fc1ccc(O[C@H](c2ccccc2)C2CCNCC2)cc1 , give the reported pKi.
result: 5.84

query: For the compound shown here, N#Cc1cccc(OC(c2ccccc2)C2CCNCC2)c1 (centres unmarked) , give the reported pKi.
result: 6.75

query: For the compound shown here, Fc1cccc(O[C@H](c2ccccc2)C2CCNCC2)c1 , give the reported pKi.
result: 7.87

query: For the compound shown here, Fc1cccc(O[C@@H](c2ccccc2)C2CCNCC2)c1 , give the reported pKi.
result: 6.97

query: For the compound shown here, Fc1cccc(O[C@H](c2cccc(F)c2)C2CCNCC2)c1 , give the reported pKi.
result: 6.89

query: For the compound shown here, N#Cc1cccc(O[C@H](c2ccccc2)C2CCNCC2)c1 , give the reported pKi.
result: 7.06

query: For the compound shown here, Fc1cc(F)cc(O[C@@H](c2ccccc2)C2CCNCC2)c1 , give the reported pKi.
result: 6.41

query: For the compound shown here, Fc1ccccc1O[C@@H](c1ccccc1)C1CCNCC1 , give the reported pKi.
result: 7.38

query: For the compound shown here, Fc1cccc(O[C@@H](c2cccc(F)c2)C2CCNCC2)c1 , give the reported pKi.
result: 7.76

query: For the compound shown here, Fc1cccc([C@@H](Oc2ccccc2F)C2CCNCC2)c1 , give the reported pKi.
result: 7.32
